Endpoint summary: pIC50, system: Glutaminyl-peptide cyclotransferase (Homo sapiens), multiple sources combined.
Answers are plain numbers, as −log10 of the molar value.

Below are worked cases with known answers.
{"molecule": "FC(F)(F)c1cc(-c2cc(NCCCn3ccnc3)nc(-c3ccccc3)n2)cc(C(F)(F)F)c1", "experimental-value": 4.04}
{"molecule": "COC1=C(C)C(c2ccc(C3CCC(N4CCOCC4)CC3)cc2)N(c2ccc3nc[nH]c3c2)C1=O (centres unmarked)", "experimental-value": 6.66}
{"molecule": "c1ccc(-c2cccn3cncc23)cc1", "experimental-value": 5.09}

Hey, can you go through the list below and give me pIC50 for every item?
1. c1ccc(COc2cccc(-c3cccn4cncc34)c2)cc1
2. COc1cc(N/C(=N/C#N)NCCCn2cncc2C)cc(OC)c1
3. COc1ccccc1-c1cc(NCCCn2ccnc2)nc(-c2ccncc2)n1

Completion:
[5.11, 6.14, 5.09]

----------
Here is a set of compounds with reported log10(IC50) for Glutaminyl-peptide cyclotransferase (Homo sapiens), compiled from the literature.
Values are log10 of IC50 in µM.

The cases that follow already have their log10(IC50) on record.
{"compound": "Clc1ccc(-c2cccn3cncc23)cc1", "experimental-value": 0.74}
{"compound": "COc1ccc(-c2cc(NCCCn3ccnc3)nc(C)n2)cc1", "experimental-value": 1.27}
{"compound": "Cc1cn(CCCN/C(=N\\C#N)Nc2ccc(C(C)C)cc2)cn1", "experimental-value": 1.17}

// each compound listed below needs its log10(IC50)
1. Clc1cccc(-c2cccn3cncc23)c1
2. S=C(Nc1ccc2[nH]cnc2c1)N1CCOCC1
3. CCc1ccc(N/C(=N/C#N)NCCCn2cncc2C)cc1
4. Cc1nc(NCCCn2ccnc2)cc(-c2ccc3ncccc3c2)n1
5. Cc1cn(CCCN/C(=N/C#N)Nc2ccc(C#N)cc2)cn1
6. COc1ccc(OC)c(CCc2nnc(-c3ccc4[nH]cnc4c3)s2)c1
7. Cc1cncn1CCCN/C(=N\C#N)Nc1ccc2ccccc2c1
8. COC1=C(C)[C@H](c2cccc(F)c2F)N(c2ccc3nc[nH]c3c2)C1=O (single isomer, unassigned)

Completion:
1. 1.24
2. 2.23
3. -0.21
4. 1.50
5. 1.48
6. -0.32
7. 0.04
8. -1.73

Each compound below has a recorded value; state its log10(IC50).
1. S=C(Nc1ccc2[nH]cnc2c1)N1CCCC1
2. COc1ccc(CCc2nnc(-c3ccc4[nH]cnc4c3)s2)cc1Cl
3. COc1cccc(-c2cc(NCCCn3ccnc3)nc(-c3ccncc3)n2)c1
4. S=C(NCCCn1ccnc1)NCC1CCCO1 (stereo not drawn)
5. c1ccc(-c2ccc(-c3cccn4cncc34)cc2)cc1
6. c1cc(-c2ccc3c(c2)OCCO3)c2cncn2c1

Completion:
2.41
-0.17
1.28
1.11
1.31
0.96

Lab note: each compound below needs its log10(IC50) filled in.
1. CN(Cc1ccc(F)cc1)C(=S)Nc1ccc2[nH]cnc2c1
2. Cc1cc(C)c(N/C(=N/C#N)NCCCn2cnc(C)c2)c(C)c1
3. FC(F)(F)c1cc(NCCCn2ccnc2)nc(-c2ccncc2)n1
4. S=C(NCCCn1ccnc1)NCc1ccco1
5. Fc1ccc(C2CCCN2C(=S)Nc2ccc3[nH]cnc3c2)cc1 (stereo not drawn)
6. S=C(NCCCn1ccnc1)NC1CCCCCCC1

Completion:
1. 2.61
2. 0.93
3. 1.57
4. 1.00
5. 2.11
6. 0.96

For each listed entry, give its log10(IC50).
1. c1ccc(C2CC2c2cc(NCCCn3ccnc3)nc(-c3ccncc3)n2)cc1 (stereo not drawn)
2. c1ccc(-c2nc(NCCCn3ccnc3)cc(C34CC5CC(CC(C5)C3)C4)n2)cc1

Completion:
1: 1.42; 2: 2.06

----------
Compiled from multiple publications: IC50 readings for Glutaminyl-peptide cyclotransferase (Homo sapiens).
Hi! Could you tag entries with IC50 below 10 µM as rule met, and those at or above as rule not met? Much appreciated.

Use these answered entries as a reference point.
{"compound": "Cc1c(F)c(F)c(CNc2ccc3[nH]cnc3c2)c(F)c1F", "system": "Glutaminyl-peptide cyclotransferase (Homo sapiens)", "category": "rule met"}
{"compound": "CCc1ccc(CN(Cc2nc3ccccc3s2)c2ccc3[nH]cnc3c2)cc1", "system": "Glutaminyl-peptide cyclotransferase (Homo sapiens)", "category": "rule met"}
{"compound": "c1ccc(-c2nc(NCCCn3ccnc3)cc(-c3ccoc3)n2)cc1", "system": "Glutaminyl-peptide cyclotransferase (Homo sapiens)", "category": "rule not met"}
{"compound": "O=C1NCC(C2CCCCC2)N1c1ccc2[nH]cnc2c1 (centres unmarked)", "system": "Glutaminyl-peptide cyclotransferase (Homo sapiens)", "category": "rule met"}
{"compound": "Cc1ccc(-c2cc(NCCCn3ccnc3)nc(-c3ccncc3)n2)cc1", "system": "Glutaminyl-peptide cyclotransferase (Homo sapiens)", "category": "rule not met"}

Prompt: is_below(IC50, 10 µM) for "Cc1cncn1CCCN/C(=N\C#N)Nc1ccc2nsnc2c1" ?
Completion: rule met

Prompt: Now consider "c1ccc2sc(CN(Cc3nc4ccccc4s3)c3ccc4[nH]cnc4c3)nc2c1" and answer again.
Completion: rule met

Prompt: Next: "O=C(NCCCn1ccnc1)Nc1cc(F)cc2c1OCOC2"
Completion: rule not met

Prompt: And then "COc1ccc(CN(Cc2ccccc2)c2ccc3nc[nH]c3c2)cc1" , what is it?
Completion: rule met

Prompt: Next compound: "COc1ccc(Cn2cnnc2-c2ccc3[nH]cnc3c2)cc1Cl"
Completion: rule met

Prompt: Next record, please: "Cc1cn(CCCN/C(=N/C#N)Nc2ccc3nsnc3c2)cn1"
Completion: rule not met

Prompt: Input "Cc1cc(NCCCn2ccnc2)nc(-c2ccccc2)n1"
Completion: rule not met

Prompt: Cool, now "COc1ccc(N/C(=C/[N+](=O)[O-])NCCCn2ccnc2)c(OC)c1"
Completion: rule met

Prompt: Subsequent entry: "c1ccc(CN(Cc2ccccc2)c2ccc3[nH]cnc3c2)cc1"
Completion: rule met
